# Tested on: Enterococcus faecalis
# Protocol Notes: Antibacterial activity against Enterococcus faecalis ATCC 29212 strain assessed as inhibition of bacterial growth incubated for 8 hrs by CLSI protocol based microdilution assay
# Type: functional
Measurement Name: MIC (µg/mL)

Answered cases to consult:
C[C@@H](O)[C@H](N)C(=O)N[C@@H](CNC(=O)CCn1cnc2cc(Cl)c(Cl)cc2c1=O)c1cccc(-c2ccccc2)c1 : 32
CN[C@H](C(=O)N[C@@H](CNC(=O)CCn1cnc2cc(Cl)c(F)cc2c1=O)c1cccc(-c2ccccc2)c1)[C@@H](C)O : 32

1 = C[C@@H](O)[C@H](N)C(=O)N(CCC(=O)NCCn1cnc2cc(Br)c(Cl)cc2c1=O)Cc1cccc(-c2ccc3c(c2)CNC3=O)c1
2 = C[C@@H](O)[C@H](N)C(=O)N[C@@H](CNC(=O)CCn1cnc2cc(Br)c(Cl)cc2c1=O)c1cccc(-c2ccc3ccccc3c2)c1
Challenge: Which value of MIC is smaller, the one for 1 or the one for 2 ? Respond using the label that marks the chosen record.
Response given: 2

I = C[C@@H](O)[C@H](N)C(=O)N(CCCC(=O)NCCn1cnc2cc(Br)c(Cl)cc2c1=O)Cc1cccc(-c2ccc3c(c2)CNC3=O)c1
II = C[C@@H](O)[C@H](N)C(=O)N[C@@H](CNC(=O)CCn1cnc2cc(Cl)c(Cl)cc2c1=O)c1cccc(-c2ccc(Cl)cc2)c1
Challenge: Exercise: compare I and II ; which one has the greater MIC? Respond using the label that marks the chosen record.
Response given: I

a = C[C@@H](O)[C@H](N)C(=O)N[C@@H](CNC(=O)CCn1cnc2cc(Cl)c(Cl)cc2c1=O)c1cccc(-c2ccc(C(F)(F)F)cc2)c1
b = C[C@@H](O)[C@H](N)C(=O)NCC=CCn1cnc2cc(Cl)c(Cl)cc2c1=O
Challenge: Which value of MIC is smaller, the one for a or the one for b ? Respond using the label that marks the chosen record.
Response given: a
